- Test system: Plasmodium falciparum
- Assay procedure: GSK_TCMDC: Inhibition of Plasmodium falciparum 3D7 in whole red blood cells, using parasite LDH activity as an index of growth. Test compounds present at 2uM
- Type: functional
Experimental readout: Inhibition (%)
One number for each entry, in %.

Please review the following examples before continuing.
In [3]: df
Out[3]:
                                   compound  experimental_readout  number
0  Cn1nc(-c2cccc(CNC3CCc4ccccc43)c2)c2cnc(NCCCN3CCCC3)nc21 (centres undefined)            Inhibition      99
1  O=C1Nc2ccc3ncccc3c2/C1=C/Nc1ccc(Cn2ccnc2)cc1            Inhibition     100
2  Cc1[nH]c(C)c(-c2ccc(OCCn3cnc(Cl)c3Cl)cc2)c(=O)c1Br            Inhibition      95
3  O=C(Nc1ccc(Cl)cc1)c1ccc(CN2CCCN(Cc3cccc(O)c3)CC2)cc1.O=C(O)C(F)(F)F            Inhibition     100
4  CC1CCCC(NCc2c(O)ccc3ccccc23)C1.Cl (centres undefined)            Inhibition      93
5  O=C(NCc1cccc(C(F)(F)F)c1)C(c1cc2ccccc2o1)N1CCN(C(c2ccccc2)c2ccccc2)CC1 (centres undefined)            Inhibition      91

Batch of 3 compounds: report Inhibition for each.
1. CC(=O)N(C)c1cccc(CNc2cc(C)nc(Nc3ccc(C)cc3)n2)c1
2. CC[C@H](C)CNC(=O)c1ccnc(-c2cccc(CN(C)C3CCN(C)CC3)c2)c1.O=C(O)C(F)(F)F
3. CCC[C@@H]([C@@H](Cc1ccc(C)s1)C(=O)N[C@@H](CNC(C)=O)C(=O)Nc1nccs1)N(O)C=O

Response:
1. 97
2. 100
3. 97
